The origin of these recorded values is paper PMC5339707.

Items are presented alongside their recorded stoichiometry N.
- targetOfAssay: the molecule itself
- testDetails: SEC-MALS; self-association of His6-SspB-CCD fusion proteins (ACCORD); Superdex 200 10/300 GL, 50 mM Tris pH 8.0, 0.5 mM TCEP, 200 mM NaCl; sample 3-5 mg/ml, 0.5 ml
readoutName: stoichiometry N

protein="His6-SspB-SCOC (78-159) fusion protein (other, E. coli | H. sapiens, UniProt P0AFZ3 1-165, looked up, Stringent starvation protein B (SspB), E. coli, full length, residues 1-165 (M1-K165), amplified from genomic DNA; Short coiled-coil protein (SCOC), human, coiled-coil domain, residues 78-159 (M78-K159); CCD ligated behind SspB in the His6-SspB vector (BamHI at the 5' end); vector holds TEV and thrombin cleavage sites; source: E. coli BL21(DE3), purified (HisTrap, Superdex 200); not shown: His6, …) MDLSQLTPRRPYLLRAFYEWLLDNQLTPHLVVDVTLPGVQVPMEYARDGQIVLNIAPRAVGNLELANDEVRFNARFGGIPRQVSVPLAAVLAIYARENGAGTMFEPEAAYDEDTSIMNDEEASADNETVMSVIDGDKPDHDDDTHPDDEPPQPPRGGRPALRVVKMMNADMDAVDAENQVELEEKTRLINQVLELQHTLEDLSARVDAVKEENLKLKSENQVLGQYIENLMSASSVFQTTDTKSKRK" readoutname="stoichiometry N" experimentalresult=2
protein="His6-SspB-LRRFIP1 (162-249) fusion protein (other, E. coli | H. sapiens, UniProt P0AFZ3 1-165, looked up, Stringent starvation protein B (SspB), E. coli, full length, residues 1-165 (M1-K165), amplified from genomic DNA; CCD ligated behind SspB in the His6-SspB vector (BamHI at the 5' end); vector holds TEV and thrombin cleavage sites; source: E. coli BL21(DE3), purified (HisTrap, Superdex 200); not shown: His6, N-terminal, kept) MDLSQLTPRRPYLLRAFYEWLLDNQLTPHLVVDVTLPGVQVPMEYARDGQIVLNIAPRAVGNLELANDEVRFNARFGGIPRQVSVPLAAVLAIYARENGAGTMFEPEAAYDEDTSIMNDEEASADNETVMSVIDGDKPDHDDDTHPDDEPPQPPRGGRPALRVVKDSLAEVEEKYKKAMVSNAQLDNEKTNFMYQVDTLKDMLLELEEQLAESRRQYEEKNKEFEREKHAHSILQFQFAEVKEALKQREEMLE" readoutname="stoichiometry N" experimentalresult=2
protein="His6-SspB-TRIM25 (194-356) fusion protein (other, E. coli | H. sapiens, UniProt P0AFZ3 1-165, looked up, Stringent starvation protein B (SspB), E. coli, full length, residues 1-165 (M1-K165), amplified from genomic DNA; source: E. coli BL21(DE3), purified (HisTrap, Superdex 200); not shown: His6, N-terminal, kept) MDLSQLTPRRPYLLRAFYEWLLDNQLTPHLVVDVTLPGVQVPMEYARDGQIVLNIAPRAVGNLELANDEVRFNARFGGIPRQVSVPLAAVLAIYARENGAGTMFEPEAAYDEDTSIMNDEEASADNETVMSVIDGDKPDHDDDTHPDDEPPQPPRGGRPALRVVKASADLEATLRHKLTVMYSQINGASRALDDVRNRQQDVRMTANRKVEQLQQEYTEMKALLDASETTSTRKIKEEEKRVNSKFDTIYQILLKKKSEIQTLKEEIEQSLTKRDEFEFLEKASKLRGISTKPVYIPEVELNHKLIKGIHQSTIDLKNELKQCIGRLQ" readoutname="stoichiometry N" experimentalresult=4
